Biological target: Serine/threonine-protein kinase 16 (Homo sapiens, UniProt O75716); note: in the data inactive means no Kd found up to 30 µM
Sequence (O75716 whole entry): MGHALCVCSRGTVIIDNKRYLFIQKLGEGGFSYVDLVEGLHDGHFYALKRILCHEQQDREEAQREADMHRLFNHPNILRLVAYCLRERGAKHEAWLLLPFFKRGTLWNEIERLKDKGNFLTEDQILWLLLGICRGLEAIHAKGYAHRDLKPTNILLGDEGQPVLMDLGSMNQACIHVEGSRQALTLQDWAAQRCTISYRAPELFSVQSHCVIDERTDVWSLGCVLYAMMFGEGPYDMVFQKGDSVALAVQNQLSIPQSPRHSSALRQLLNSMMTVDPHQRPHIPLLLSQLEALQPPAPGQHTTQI
Active and inactive are the calls of the source.
Thanks in advance; please answer with one of these: active, inactive

Example entries begin here.
Cc1nc(N)sc1-c1ccnc(Nc2ccc(N3CCOCC3)cc2)n1    active
CO[C@H]1C[C@@H]2CC[C@@H](C)[C@@](O)(O2)C(=O)C(=O)N2CCCC[C@H]2C(=O)O[C@H]([C@H](C)C[C@@H]2CC[C@@H](OCCO)[C@H](OC)C2)CC(=O)[C@H](C)/C=C(\C)[C@@H](O)[C@@H](OC)C(=O)[C@H](C)C[C@H](C)/C=C/C=C/C=C/1C    inactive

Now consider the entry below.
Req: For COC(=O)N[C@@H](C)CNc1nccc(-c2cn(C(C)C)nc2-c2cc(Cl)cc(NS(C)(=O)=O)c2F)n1 , which call appears in the assay record?
Resp: inactive
